List of activation at 1000 µM values.
Measured target: human TRPV1 (Homo sapiens, UniProt Q8NER1, M315I/T336M)
Construct: expressed in transfected cells; pcDNA3 control cells
Sequence (Q8NER1 whole entry M315I/T336M): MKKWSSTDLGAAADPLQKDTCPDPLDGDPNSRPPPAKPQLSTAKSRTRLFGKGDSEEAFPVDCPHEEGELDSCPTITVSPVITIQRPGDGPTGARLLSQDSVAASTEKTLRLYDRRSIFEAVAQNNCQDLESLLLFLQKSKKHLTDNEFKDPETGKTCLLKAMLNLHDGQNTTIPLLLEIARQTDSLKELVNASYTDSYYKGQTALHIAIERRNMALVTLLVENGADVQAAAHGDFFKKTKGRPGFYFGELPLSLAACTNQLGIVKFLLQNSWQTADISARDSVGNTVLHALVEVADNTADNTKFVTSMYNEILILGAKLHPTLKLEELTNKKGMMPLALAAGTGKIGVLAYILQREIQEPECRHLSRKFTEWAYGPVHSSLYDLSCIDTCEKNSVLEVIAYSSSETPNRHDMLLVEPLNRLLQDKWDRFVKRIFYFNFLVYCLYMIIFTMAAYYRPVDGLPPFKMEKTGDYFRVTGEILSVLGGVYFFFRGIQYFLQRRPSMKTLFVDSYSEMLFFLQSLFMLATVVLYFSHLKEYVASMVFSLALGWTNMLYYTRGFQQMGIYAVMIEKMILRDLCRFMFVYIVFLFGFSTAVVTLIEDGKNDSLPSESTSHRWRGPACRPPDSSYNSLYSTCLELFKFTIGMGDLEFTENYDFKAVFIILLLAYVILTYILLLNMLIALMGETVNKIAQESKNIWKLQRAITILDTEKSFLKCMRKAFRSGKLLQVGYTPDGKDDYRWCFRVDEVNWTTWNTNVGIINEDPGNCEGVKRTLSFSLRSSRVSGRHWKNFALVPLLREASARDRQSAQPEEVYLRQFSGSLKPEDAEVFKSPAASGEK
Assay notes: Intracellular calcium (Fluo-4, FLIPR) activation of TRPV1 cells by GRAS compounds;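 also: TRPV1-expressing cells, FLIPR fluorescence at 488/514 nm with baseline subtracted, sampled every 2 s for 10 min after adding compound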
Format: cell-based
Cond: Table 1(b); 1 mM; relative to capsaicin 350 nM; read-out: V1 activation, % of agonist value
Reported property: activation at 1000 µM (%)

>>> recorded_result("Cc1ccc(C(C)C)cc1O [Carvacrol]")
84.6
>>> recorded_result("OCCCCCc1ccccc1 [5-Phenyl-1-pentanol]")
113
>>> recorded_result("CCCCCC1C(=O)CCC1CC(=O)OC (centres unmarked) [Hedione, Methyl dihydrojasmonate]")
25.6
>>> recorded_result("CC(C)=CCCC(C)CCO (centres unmarked) [Citronellol]")
106
>>> recorded_result("CC(C)C(=O)OCc1ccc2c(c1)OCO2 [Piperonyl isobutyrate]")
30
>>> recorded_result("COc1cc(/C=C/C(=O)CC(=O)/C=C/c2ccc(O)c(OC)c2)ccc1O [Curcumin]")
43.2
>>> recorded_result("Cc1ccc(C(C)C)c(O)c1 [Thymol]")
106
>>> recorded_result("O=C1CCCC1C1CCCC1 (centres unmarked) [2-Cyclopentylcyclopentanone]")
24
>>> recorded_result("CC(O)CCc1ccccc1 (centres unmarked) [4-Phenyl-2-butanol]")
37.9
>>> recorded_result("CCCCCC(=O)CCCC(=O)O [5-Oxodecanoic acid]")
53.4
>>> recorded_result("CC1=CC(=O)C(C(C)C)CC1 (centres unmarked) [Piperitone]")
53.3

====

System: TRPA1V1
Assay notes: Intracellular calcium (Fluo-4, FLIPR) activation of TRPA1V1 cells (co-expressing TRPA1 and TRPV1) by GRAS compounds
Assay type: cell-based, human
Cond: Table 1(c); 1 mM; relative to AITC 30 μM
Reported property: A1V1 activation, % of agonist value (%)

>>> recorded_result("CCC(=O)OCc1ccccc1 [Benzyl propionate]")
90.7
>>> recorded_result("CCCCCOC(=O)c1ccco1 [Amyl furoate]")
87.70
>>> recorded_result("CC/C=C/C=O [Trans-2-Pentenal]")
68.62
>>> recorded_result("CC(=O)OCC=Cc1ccccc1 [Cinnamyl acetate]")
89.73
>>> recorded_result("O=C(CCl)c1ccccc1")
103
>>> recorded_result("COC(=O)c1ccc(OC)cc1 [Methyl p-anisate]")
66.24

====

Test system: TRPA1V1
Assay notes: Intracellular calcium (Fluo-4, FLIPR) activation of TRPA1V1 cells (co-expressing TRPA1 and TRPV1) by GRAS compounds;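 also: HEK293 cells co-expressing TRPA1 and TRPV1, fluorescence read at 488/514 nm after baseline subtraction, recorded every 2 s over 10 min, ionomycin 10 µM and buffer as controls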
Format: cell-based, human
Cond: Table 1(a); 1 mM; relative to AITC 30 μM; average of three plates
Reported property: A1V1 activation, % of agonist value (%)

>>> recorded_result("CCCCCCCCCCCCCCCC(=O)OC/C=C(C)/C=C/C=C(C)/C=C/C1=C(C)CCCC1(C)C [Retinol palmitate]")
76.97
>>> recorded_result("CC(=O)/C=C/C=C(\\C)CCC=C(C)C [Pseudoionone]")
127.2
>>> recorded_result("CC/C=C\\CCOC(=O)C(C)=O [Pyruvic caid cis-3-hexen-1-yl ester]")
40
>>> recorded_result("O=C(O)C(=O)Cc1ccccc1 [Phenylpyruvic acid]")
74.05
>>> recorded_result("CCCSSc1ccoc1C [Propyl 2-methyl-3-furyl disulfide]")
194.3
>>> recorded_result("CCCCCC1CCC(=O)O1 (stereo not shown) [Gamma-Nonalactone]")
69.15
>>> recorded_result("S=C=NCc1ccccc1 [Isothiocyanic acid, benzyl ester]")
180.5
